study.system: Beta-2 adrenergic receptor (Homo sapiens)
condition: Compound concentration 10 µM; call rule not given here
Parameter call: string, one of active, inactive

[in] // return assay outcome for COc1cc2nc(N3CCN(C(=O)c4ccco4)CC3)nc(N)c2cc1OC
[out] inactive

[in] // return assay outcome for CCc1cc2c(cc1CC)CC(NC[C@H](O)c1ccc(O)c3[nH]c(=O)ccc13)C2
[out] active

[in] // return assay outcome for Cc1cccc(NC(=O)N[C@@H]2N=C(c3ccccc3)c3ccccc3N(C)C2=O)c1
[out] inactive

[in] // return assay outcome for C[C@H](CO)Nc1nc(SCc2cccc(Cl)c2F)nc2[nH]c(=O)sc12
[out] inactive

[in] // return assay outcome for S=C(NCCCc1c[nH]cn1)NCCCN(Cc1ccc(Cl)c(Cl)c1)c1ccc(Br)cn1
[out] inactive

###

study.system: Delta-type opioid receptor (Homo sapiens) (UniProt P41143)
Sequence (P41143 whole entry): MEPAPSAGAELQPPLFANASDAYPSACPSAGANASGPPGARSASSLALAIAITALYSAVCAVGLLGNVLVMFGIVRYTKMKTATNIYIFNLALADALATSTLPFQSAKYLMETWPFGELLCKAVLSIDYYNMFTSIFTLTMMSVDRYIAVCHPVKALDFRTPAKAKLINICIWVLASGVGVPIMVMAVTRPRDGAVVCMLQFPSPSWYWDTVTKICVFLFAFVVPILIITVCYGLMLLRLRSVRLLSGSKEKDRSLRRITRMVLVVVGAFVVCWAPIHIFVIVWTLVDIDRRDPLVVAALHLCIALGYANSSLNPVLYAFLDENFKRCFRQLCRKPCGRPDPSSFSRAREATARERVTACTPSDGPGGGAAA
condition: Compound concentration 10 µM
Description: PDSP Primary Binding target: OPRD1 - Compounds are tested at 10 uM concentration, plate are incubated at room temperature in the dark for 90 minutes. Reaction are stopped by vacuum filtration onto 0.3% polyethyleneimine soaked filter mats using Filtermate harvester. Scintilation cocktail is then melted onto microwave-dried filters on a hot plate and the radio activity is counted in Microbia counter.
reported.property: inhibition (%)
Just the number please, in %, no unit attached.

{"smiles.entry": "Cc1cc(NC(=O)NCCN2CCC(O)(Cc3ccccc3)CC2)c2ccccc2n1", "reported.property": "inhibition", "value.observed": 15.6}
{"smiles.entry": "COc1ccc2cc(S(=O)(=O)N[C@H](CC(=O)N[C@H](Cc3ccc(CN4[C@H](C)CCC[C@@H]4C)cc3)C(=O)N(C)C(C)C)c3ccc4c(c3)OCO4)ccc2c1", "reported.property": "inhibition", "value.observed": 8.79}
{"smiles.entry": "Cc1nc(-c2ccc(-c3ccc(C(=O)N4CCc5cc6c(cc54)C4(CCN(C)CC4)CO6)cc3)c(C)c2)no1", "reported.property": "inhibition", "value.observed": -1.39}
{"smiles.entry": "CCc1ccc(OCc2ccccc2C(=O)Nc2ccc3nc(C)cc(N)c3c2)cc1", "reported.property": "inhibition", "value.observed": -2.98}
{"smiles.entry": "N#Cc1ccc2[nH]cc(CCCCN3CCN(c4ccc5oc(C(N)=O)cc5c4)CC3)c2c1", "reported.property": "inhibition", "value.observed": 35.4}
{"smiles.entry": "OC1(c2ccc(Cl)cc2)CCN(Cc2c[nH]c3ccccc23)CC1", "reported.property": "inhibition", "value.observed": 3.7}

[in] Tell me the measured inhibition of COc1ccc(Br)cc1S(=O)(=O)NC(=O)/C=C/c1ccccc1Cc1ccc2ccccc2c1 , please.
[out] -2.75

[in] Tell me the measured inhibition of CCCCCCCCCCCCC/C=C/[C@@H](O)[C@@H](N)COP(=O)(O)O , please.
[out] 20.4

[in] Tell me the measured inhibition of Cc1nc(-c2ccc(C(F)(F)F)cc2)sc1COc1ccc([C@H](CC(=O)O)c2ccon2)cc1 , please.
[out] 23

###

study.system: Histamine H1 receptor (Homo sapiens)
condition: Compound concentration 10 µM
Description: PDSP Primary Binding target: HRH1 - Compounds are tested at 10 uM concentration, plate are incubated at room temperature in the dark for 90 minutes. Reaction are stopped by vacuum filtration onto 0.3% polyethyleneimine soaked filter mats using Filtermate harvester. Scintilation cocktail is then melted onto microwave-dried filters on a hot plate and the radio activity is counted in Microbia counter.
Overview of recorded inhibition for various molecules
Just the number please, in %, no unit attached.

Solved cases below.
{"smiles.entry": "CN[C@@H]1CCc2[nH]c3ccc(C(N)=O)cc3c2C1", "value.unit": "%", "inhibition": 0.33}
{"smiles.entry": "CCc1cc2c(c(CC)n1)CCC(=O)N2Cc1ccc(-c2ccccc2-c2nnn[nH]2)cc1", "value.unit": "%", "inhibition": 8.58}
{"smiles.entry": "CCCCCNC(=N)N/N=C/c1c[nH]c2ccc(OC)cc12", "value.unit": "%", "inhibition": 31.1}
{"smiles.entry": "O=S1(=O)c2cccc3cccc(c23)N1CCCN1CCN(c2ccc(F)cc2)CC1", "value.unit": "%", "inhibition": 96.9}

[in] Tell me the measured inhibition of CN(C)S(=O)(=O)c1ccc(NC(=S)N2CCC(C(O)(c3ccccc3)c3ccccc3)CC2)cc1 , please.
[out] 6.41
